Exercise: for every item that follows, state its recorded pIC50.
# TEST_SYSTEM: T1, human GLP-1 receptor (human, UniProt P43220 24-463)
# T1 construct: whole, on cells; Used as purified plasma membranes of the stably transfected BHK cell line, not as intact cells; also called hGLP-1
# METHOD_NOTES: SPA, displacement of 125I-GLP-1(7-36)NH2 from hGLP-1R BHK membranes, low HSA (0.001%)
Numbered stars: 1 amine (or outer) side, 2 acyl side, 3 side chain; on linkers, the order of the positions; unused ones are H or OH. Square brackets hold non-standard residues; d marks the D form. Side chains are listed from the residue outwards. Ends that are not written are not given here. * marks the point of attachment. Decanoyl(10-(4-HOOC-PhO)) = O=C(O)c1ccc(OCCCCCCCCCC(=O)*)cc1; γGlu = O=C(O)[C@H](CCC(=O)[*:2])N[*:1]; C14 diacid = O=C(O)CCCCCCCCCCCCC(=O)*; AEEA = NCCOCCOCC(=O)O; Aib = CC(C)(N)C(=O)O
pIC50 (log units): -log10 of the concentration in mol/L.

Prompt line: Fill in: pIC50 of HAEGTFTSDVSSYLEGQAVRK([AEEA-AEEA-γGlu-C14 diacid])FIAHLVQGRK([AEEA-AEEA-γGlu-C14 diacid]) (also called 16) is ___
Response line: 9.70

Prompt line: Fill in: pIC50 of HAEGTFTSDVSSYLEK([γGlu-AEEA-AEEA-C14 diacid])QAVRK([γGlu-AEEA-AEEA-C14 diacid])FIEWLVQGRG (also called 20) is ___
Response line: 9.72

Prompt line: Fill in: pIC50 of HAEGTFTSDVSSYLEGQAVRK([AEEA-AEEA-γGlu-Decanoyl(10-(4-HOOC-PhO))])FIEWLVQGK([AEEA-AEEA-γGlu-Decanoyl(10-(4-HOOC-PhO))])GE (also called 13) is ___
Response line: 9.60

Prompt line: Fill in: pIC50 of H[Aib]EGTFTSDVSSYLEK([AEEA-AEEA-γGlu-C14 diacid])QAVRK([AEEA-AEEA-γGlu-C14 diacid])FIAWLVR is ___
Response line: 8.85

Prompt line: Fill in: pIC50 of H[Aib]EGTFTSDVSSYLEGQAVRK([AEEA-AEEA-γGlu-C14 diacid])FIAHLVQGRK([AEEA-AEEA-γGlu-C14 diacid]) (also called 15) is ___
Response line: 9.72

Taken from patent US9266940.
